- target system: Sut1 (UniProt P53032)
- Sequence: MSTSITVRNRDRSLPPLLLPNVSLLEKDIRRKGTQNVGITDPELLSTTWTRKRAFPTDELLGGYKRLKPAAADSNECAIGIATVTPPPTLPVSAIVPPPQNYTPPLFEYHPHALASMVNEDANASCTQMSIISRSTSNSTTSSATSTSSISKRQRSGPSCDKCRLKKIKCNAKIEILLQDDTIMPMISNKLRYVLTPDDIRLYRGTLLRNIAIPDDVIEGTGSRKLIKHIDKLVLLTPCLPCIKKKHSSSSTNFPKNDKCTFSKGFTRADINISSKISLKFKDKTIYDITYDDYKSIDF
- run description: PBM E-score (8-mer binding enrichment) (E-score (-0.5 to 0.5)); higher = stronger / more preferred TF binding
- condition details: protein concentration: 200 nM; construct: GST-full length
The full ranking holds about 33,000 sequences; the median of “E-score (-0.5 to 0.5)” is about -0.017, and the highest 2% start at about 0.3. Shown is part of a subset that was picked to be rich in the highest values.
Classes based on PBM E-score: group A (below -0.05), group B (-0.05 to below 0.2), group C (0.2 or more)

{"sequence record": "GGGAGACC", "class label": "group A"}
{"sequence record": "CATGGGTC", "class label": "group A"}
{"sequence record": "GCGGACTA", "class label": "group C"}
{"sequence record": "GACTCGGA", "class label": "group C"}
{"sequence record": "ATATCTCC", "class label": "group C"}
{"sequence record": "ACCCGCCT", "class label": "group A"}
{"sequence record": "GAGGATCA", "class label": "group A"}
{"sequence record": "AGCTATGC", "class label": "group A"}
{"sequence record": "AATTATAC", "class label": "group C"}
{"sequence record": "ATGTTCGG", "class label": "group B"}
{"sequence record": "CTCGGACC", "class label": "group C"}
{"sequence record": "ATGTTATG", "class label": "group C"}
{"sequence record": "CTGTGCAC", "class label": "group A"}
{"sequence record": "AATTCCGA", "class label": "group C"}
{"sequence record": "AATGGATC", "class label": "group B"}
{"sequence record": "ACCGGTCT", "class label": "group A"}
{"sequence record": "ATCGGACA", "class label": "group C"}
{"sequence record": "AAAGCTCC", "class label": "group B"}
{"sequence record": "CAATCTCG", "class label": "group A"}
{"sequence record": "ACGGACTA", "class label": "group C"}
{"sequence record": "CCCGGACG", "class label": "group A"}
{"sequence record": "TATTCCGA", "class label": "group C"}
{"sequence record": "GGCTGACC", "class label": "group A"}
{"sequence record": "CAATCTCA", "class label": "group B"}
{"sequence record": "CATTATAA", "class label": "group B"}
{"sequence record": "ACGGACTG", "class label": "group C"}
{"sequence record": "ACCGGACA", "class label": "group C"}
{"sequence record": "AGAGTCCA", "class label": "group A"}
{"sequence record": "TTCCGAAA", "class label": "group C"}
{"sequence record": "AGGAGATC", "class label": "group B"}
{"sequence record": "ACGTACTA", "class label": "group B"}
{"sequence record": "ACAGTTCG", "class label": "group B"}
{"sequence record": "ACGGACTC", "class label": "group C"}
{"sequence record": "AATAGCTG", "class label": "group B"}
{"sequence record": "CTCGGAAC", "class label": "group B"}
{"sequence record": "AAAACTGG", "class label": "group B"}
{"sequence record": "ATTCGTAC", "class label": "group B"}
{"sequence record": "ACTCGTCG", "class label": "group A"}
{"sequence record": "CAGTGGTC", "class label": "group A"}
{"sequence record": "GTGACGAA", "class label": "group B"}
{"sequence record": "ACGCATCA", "class label": "group B"}
{"sequence record": "GTCTCGGA", "class label": "group C"}
{"sequence record": "CAAATTCA", "class label": "group B"}
{"sequence record": "GCATCAAA", "class label": "group B"}
{"sequence record": "TACTCGCA", "class label": "group B"}
{"sequence record": "CACGGACA", "class label": "group B"}
{"sequence record": "CAGTTCTA", "class label": "group A"}
